Give measured composite z-score for each item. Keep answers brief.
Target Or Test System: Torsin-1A (Homo sapiens)
Experiment: torsin A mutant lysate binding on microarrays – cell lysate, small-molecule microarray, COS7 lysate, 635/667 nm fluorescence, primary screen (AID 1150);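 note: score pools 667 nm emission and signal to noise measuring lysate protein binding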
Experimental Conditions: COS7 hTOR1A mutant lysate, 635 nm fluorescence, higher = more signal
One number for each entry.

[[record]]
compound = "CCOC(=O)C[C@H]1[C@H](OC(=O)c2ccccc2-c2ccccc2)[C@@H](NC(=O)C2CCCCC2)c2cc(OCCCO)ccc2N1C(=O)c1ccc2ccccc2n1"
numeric_value = 0.133


I would be grateful if you could provide composite z-score for each of the following entries.
1. C=CCN1C(=O)[C@@]2(O[C@@H](CCn3cc([C@H](O)c4ccccc4)nn3)[C@H]([Si](C)(C)c3ccc(OC)cc3)[C@H]2C)c2cc(N3C(=O)c4cccc5cccc3c45)ccc21
2. COc1ccc(C(=O)Nc2ccc(CN3C(=O)[C@@]4(O[C@@H](CCn5cc(CCO)nn5)[C@H]([Si](C)(C)c5ccc(OC)cc5)[C@H]4C)c4ccccc43)cc2)cc1

A)
1. -0.462
2. 0.411

I would be grateful if you could provide composite z-score for each of the following entries.
1. COC(=O)[C@]1(CCC(=O)OC(C)(C)C)N=C(c2ccc(OCCCO)cc2)O[C@@H]1c1ccccc1N=[N+]=[N-]
2. COc1ccc([Si](C)(C)[C@H]2[C@H](CC(=O)N3Cc4ccccc4C[C@H]3CO)O[C@@]3(C(=O)N(C)c4c(Br)cc(C)cc43)[C@@H]2C)cc1
3. COCCOC(=O)N1C(=O)[C@@]2(c3cc(C#CCC(C(=O)OC)C(=O)OC)ccc31)[C@H](c1ccc(O)cc1)N1[C@H](c3ccccc3)[C@H](c3ccccc3)OC(=O)[C@H]1[C@@H]2C(=O)Nc1nc2ccccc2s1
4. CN(C)CCCNC(=O)[C@@H]1c2ccccc2C(=O)N(Cc2ccccc2C(F)(F)F)[C@H]1c1ccc(CO)cc1
5. C=CCC(OC(C)=O)[C@@H]1[C@@H](N(Cc2ccc(-c3ccccc3)cc2)C(=O)c2cccc3ccccc23)c2cc(OCCCO)ccc2N1C(=O)Cc1ccc(OC)cc1 (stereo partly drawn)

A)
0.0612
0.435
0.479
-0.0393
0.127

I would be grateful if you could provide composite z-score for each of the following entries.
1. COc1cc(C(O)C2C=CC3C(=O)N(c4ccccc4)C(=O)C3N2Nc2ccccc2)cc(OC)c1OC (stereo not drawn)
2. CN(C)CCCNC(=O)[C@@]1(C)c2ccccc2C(=O)N(Cc2ccc(OC(F)(F)F)cc2)[C@H]1c1ccc(CO)cc1
3. C=CCOC(=O)[C@H]1[C@@H]2C(=O)O[C@@H](c3ccccc3)[C@@H](c3ccccc3)N2[C@@H](c2ccc(OCCOC(=O)[C@@H]3C[C@@H]4C(=O)N[C@@H](CCCCNC(C)=O)C(=O)N4[C@@H]3c3cccc(OCCO)c3)cc2)[C@]12C(=O)Nc1ccccc12
4. O=C1C2C=CC(C(O)c3c(F)cccc3Cl)N(Nc3ccc([N+](=O)[O-])cc3)C2C(=O)N1c1ccccc1 (stereo not drawn)

A)
1. -0.0996
2. 0.332
3. 1.3
4. 1.03

I would be grateful if you could provide composite z-score for each of the following entries.
1. COCCn1c(C(=O)N(C)C)cc2c1C[C@H]1CN(C(=O)c3ccccc3)[C@@](Cc3ccc(OC)cc3)(C(=O)OC)[C@@H]21
2. CCCCCC1=C2CNC(Cc3ccccc3)(C(=O)OC)C=C2C(C)C1=O (stereo not drawn)
3. C=CCC(OC(C)=O)[C@@H]1[C@@H](N(Cc2cc3ccccc3o2)C(=O)c2cccc3ccccc23)c2cc(OCCCO)ccc2N1C(=O)c1ccc2ccccc2n1 (stereo partly drawn)
4. CCOC(=O)C[C@H]1[C@H](OC(=O)Cc2ccc3c(c2)OCO3)[C@@H](NC(=O)Cc2ccc(OC)cc2)c2cc(OCCCO)ccc2N1C(=O)Cc1ccc(OC)cc1
5. C[C@@H]1NC(=O)C([C@@H](C)OCc2ccccc2)NC(=O)[C@@]23C(=O)N[C@@H](Cc4ccccc4)C2[C@H](C)[C@@]2(C)O[C@H]2C3/C=C/C/C=C\CNC1=O (stereo partly drawn)
6. C=C(COC)C(=O)CC[C@@H](OC(C)=O)c1ccccc1OCCO
7. O=C1[C@H]2C=C(I)[C@H](C[C@@H]2c2ccccc2)[C@@]12CO2
8. CCCCCCc1nc(Cc2cc(OC)c(OC)c(OC)c2)cc2c1[Si](C(C)C)(C(C)C)O[C@H]2c1ccccc1

A)
1. 1.11
2. 0.154
3. -0.661
4. 0.209
5. 0.0936
6. 1.05
7. -0.153
8. -0.155

I would be grateful if you could provide composite z-score for each of the following entries.
1. COc1ccc([Si](C)(C)[C@H]2[C@H](CC(=O)N3CCC[C@H]3CO)O[C@@]3(C(=O)N(Cc4ccc(N5CCCCC5=O)cc4)c4ccccc43)[C@@H]2C)cc1
2. COc1ccc([Si](C)(C)[C@H]2[C@H](CC(=O)N3Cc4ccccc4C[C@H]3CO)O[C@@]3(C(=O)N(C)c4ccccc43)[C@@H]2C)cc1
3. CN1C(=O)[C@@H]2[C@@H](CC(COc3ccccc3)=C3[C@@H](CCc4ccccc4)OB(O)C[C@@H]32)C1=O
4. COc1cc(OC)c(C(O)C2C=CC3C(=O)N(c4ccccc4)C(=O)C3N2Nc2ccc(C(C)C)cc2)cc1Br (stereo not drawn)
5. [N-]=[N+]=Nc1ccccc1[C@H]1OC(c2ccc(OCCCO)cc2)=N[C@@]1(Cc1ccccc1)C(=O)NCC(O)CO (stereo partly drawn)

A)
0.608
1.91
0.0191
0.345
0.807

I would be grateful if you could provide composite z-score for each of the following entries.
1. Cc1ccccc1C(O)C1C=CC2C(=O)N(c3ccccc3)C(=O)C2N1Nc1ccccc1 (stereo not drawn)
2. COC(=O)C1=CC(CCCO)=CC(c2cccs2)N(Cc2cc3c(cc2Br)OCO3)C=C1C(=O)OC (stereo not drawn)
3. O=C1O[C@H](c2ccccc2)[C@H](c2ccccc2)N2[C@H]1[C@@H](C(=O)N1CCN(c3ncccn3)CC1)[C@]1(C(=O)Nc3ccc(C#CCCO)cc31)[C@H]2c1ccc(O)cc1

A)
1: 0.191; 2: 1.12; 3: 0.0065

---

Experiment: viability profiling in RPMI8226 myeloma cells – cell-based, resazurin fluorescence, basal, 24 h, PK04 Diversity Set, profiling panel (AID 1180);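 note: RPMI8826 multiple myeloma cell line at 5000 cells per well; test concentration not given here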
Experimental Conditions: higher = more signal
The threshold is inclusive: z-score of exactly -1 counts as MET; values below receive NOT MET.

Answered examples (3):
[[record]]
molecule = "CC(C)C(O)C1C=CC2C(=O)NC(=O)C2N1Nc1ccccn1 (configuration not stated)"
answer_label = "NOT MET"

[[record]]
molecule = "COC(=O)[C@@]1(Cc2ccc(OC)cc2)[C@H]2c3cc(C(=O)N4CCCC4)n(CCn4cc([N+](=O)[O-])nc4C)c3C[C@H]2CN1C(=O)c1ccccc1"
answer_label = "NOT MET"

[[record]]
molecule = "CCCCCCc1nc(Cc2cc(OC)c(OC)c(OC)c2)cc2c1[Si](C(C)C)(C(C)C)O[C@H]2c1ccccc1"
answer_label = "MET"


Q) Can C=C(CCCC)C(=O)CC[C@@H](OC(=O)c1ccccc1-c1ccccc1C(=O)O)c1ccccc1OCCO be said to have z-score at or above -1?
A) NOT MET

Q) Can O=C(NC1CC1)[C@@H]1c2ccccc2C(=O)N(Cc2ccc(OC(F)(F)F)cc2)[C@H]1c1ccc(CO)cc1 be said to have z-score at or above -1?
A) MET

Q) Can COc1ccc([Si](C)(C)[C@H]2[C@H](CC(=O)N3Cc4ccccc4C[C@H]3CO)O[C@@]3(C(=O)N(c4ccccc4)c4ccccc43)[C@@H]2C)cc1 be said to have z-score at or above -1?
A) NOT MET

Q) Can [N-]=[N+]=NCc1ccccc1[C@@H]1OC(c2ccc(OCCCO)cc2)=N[C@]1(Cc1ccccc1N=[N+]=[N-])C(=O)NCC(O)CO (some centres not stated) be said to have z-score at or above -1?
A) NOT MET

---

Give measured composite z-score for each item. Keep answers brief.
Target Or Test System: Follistatin (Homo sapiens) (UniProt P19883)
Sequence (P19883 whole entry, looked up): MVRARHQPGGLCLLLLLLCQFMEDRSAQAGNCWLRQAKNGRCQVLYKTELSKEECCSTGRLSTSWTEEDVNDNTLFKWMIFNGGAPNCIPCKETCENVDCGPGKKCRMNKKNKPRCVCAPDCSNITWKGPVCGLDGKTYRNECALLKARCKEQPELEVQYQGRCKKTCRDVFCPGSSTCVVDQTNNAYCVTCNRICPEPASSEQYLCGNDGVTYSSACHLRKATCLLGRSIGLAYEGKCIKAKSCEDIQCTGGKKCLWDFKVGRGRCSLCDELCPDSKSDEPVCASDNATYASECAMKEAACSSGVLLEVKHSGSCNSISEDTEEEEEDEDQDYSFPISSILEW
Experiment: FST protein binding to printed compounds – biochemical, small-molecule microarray, 635/667 nm fluorescence, primary screen (AID 1132)
Experimental Conditions: 635 nm fluorescence, higher = more signal
Numbers only.

Field: example entries. Status: answers known.
[[record]]
smiles_text = "COC(=O)C[C@H]1O[C@@]2(C[C@@H]1[Si](C)(C)C)C(=O)N(C)c1ccccc12"
numeric_value = 0.501

[[record]]
smiles_text = "COC(=O)[C@@]1(Cc2ccccc2)[C@H]2c3cc(C(=O)N4CCCC4)n(Cc4ccc(OC)c(OC)c4)c3C[C@H]2CN1C(=O)c1ccccc1"
numeric_value = 0.528


I would be grateful if you could provide composite z-score for each of the following entries.
1. CCCCCCc1nc(Cc2cc(OC)c(OC)c(OC)c2)cc2c1[Si](C(C)C)(C(C)C)O[C@H]2c1ccccc1
2. COCCOC(=O)N1C(=O)[C@@]2(c3ccccc31)[C@H](c1ccc(O)cc1)N1[C@H](c3ccccc3)[C@H](c3ccccc3)OC(=O)[C@H]1[C@@H]2C(=O)N1CCCCCCC1

A)
0.571
1.46
